system: P3 purinoceptor
experimentDescription: Binding activity was evaluated on P3 purinoceptor-like protein from rat brain membranes by using [3H]NECA (40 nM).
Collected Ki values appear next to each entry.
Express the result in nM but write the number alone.

Consider the worked cases shown below.
molecule: C#C[C@H]1OC(n2cnc3c(N)ncnc32)[C@H](O)[C@@H]1O (stereo partly drawn)
system: P3 purinoceptor
Ki (nM): 280
--
molecule: NC(=O)[C@H]1OC(n2cnc3c(N)ncnc32)[C@H](O)[C@@H]1O (stereo partly drawn)
system: P3 purinoceptor
Ki (nM): 64
--
molecule: CNC(=O)[C@H]1O[C@@H](n2cnc3c(N)ncnc32)[C@H](O)[C@@H]1O
system: P3 purinoceptor
Ki (nM): 51
--
molecule: CCCSC[C@H]1OC(n2cnc3c(N)ncnc32)[C@H](O)[C@@H]1O (stereo partly drawn)
system: P3 purinoceptor
Ki (nM): 1100
--
molecule: CCNC(=O)[C@H]1O[C@@H](n2cnc3c(N)ncnc32)[C@H](O)[C@@H]1O
system: P3 purinoceptor
Ki (nM): 37

Lookup: Sample Nc1ncnc2c1ncn2C1O[C@H](CCl)[C@@H](O)[C@H]1O (stereo partly drawn) — what was its Ki?
Found: 84

Lookup: Sample Nc1ncnc2c1ncn2C1O[C@H](CSc2ccccc2)[C@@H](O)[C@H]1O (stereo partly drawn) — what was its Ki?
Found: 54

Lookup: Sample Nc1ncnc2c1ncn2C1O[C@H](CSCc2ccccc2)[C@@H](O)[C@H]1O (stereo partly drawn) — what was its Ki?
Found: 70

Lookup: Sample C#C[C@H](O)[C@H]1OC(n2cnc3c(N)ncnc32)[C@H](O)[C@@H]1O (stereo partly drawn) — what was its Ki?
Found: 19

Lookup: Sample C#C[C@@H](O)[C@H]1OC(n2cnc3c(N)ncnc32)[C@H](O)[C@@H]1O (stereo partly drawn) — what was its Ki?
Found: 450

Lookup: Sample [N-]=[N+]=NC[C@H]1OC(n2cnc3c(N)ncnc32)[C@H](O)[C@@H]1O (stereo partly drawn) — what was its Ki?
Found: 81

Lookup: Sample CN(C)C(=O)[C@H]1OC(n2cnc3c(N)ncnc32)[C@H](O)[C@@H]1O (stereo partly drawn) — what was its Ki?
Found: 21000

Lookup: Sample N#C[C@H]1OC(n2cnc3c(N)ncnc32)[C@H](O)[C@@H]1O (stereo partly drawn) — what was its Ki?
Found: 64
